pIC50: −log10 of the molar value.
As an illustration, consider measured pIC50 for compounds on Serine/threonine-protein kinase pim-1 (Homo sapiens).
Sequence (P11309 whole entry): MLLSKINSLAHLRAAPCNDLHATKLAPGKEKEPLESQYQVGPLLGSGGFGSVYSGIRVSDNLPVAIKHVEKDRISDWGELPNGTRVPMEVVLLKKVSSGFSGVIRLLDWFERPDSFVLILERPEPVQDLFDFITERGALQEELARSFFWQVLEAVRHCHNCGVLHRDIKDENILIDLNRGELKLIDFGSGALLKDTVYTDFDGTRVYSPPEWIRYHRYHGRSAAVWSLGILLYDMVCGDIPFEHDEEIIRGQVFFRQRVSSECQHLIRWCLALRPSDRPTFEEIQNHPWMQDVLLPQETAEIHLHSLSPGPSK
readout: pIC50

* CN(C)CCNc1cncc(-c2ccc3[nH]cc(-c4ccc(OC(F)(F)F)cc4)c3c2)n1 | 7.02
* CN(C)CCNc1cncc(-c2ccc3[nH]cc(-c4ccc(N)cc4F)c3c2)n1 | 8.52
* NC1CCCN(c2cncc(-c3ccc4[nH]cc(-c5ccccc5F)c4c3)n2)C1 (stereo not drawn) | 8.15
* Fc1ccccc1-c1c[nH]c2ccc(-c3cncc(N4CCCNCC4)n3)cc12 | 7.92
* Cc1cccc(-c2c[nH]c3ccc(-c4cncc(NCCN(C)C)n4)cc23)c1 | 7.68
* CN(C)CCNc1cncc(-c2ccc3[nH]cc(-c4ccc(C#N)cc4)c3c2)n1 | 7.48
* CN(C)CCNc1cncc(-c2ccc3[nH]cc(-c4cccc(N)c4)c3c2)n1 | 7.72
* CN(C)CCNc1cncc(-c2ccc3[nH]cc(-c4cccc(F)c4F)c3c2)n1 | 8.05
* CN(C)CCNc1cncc(-c2ccc3[nH]cc(-c4cccc(C#N)c4)c3c2)n1 | 7.68
* CN(C)CCNc1cncc(-c2ccc3[nH]cc(-c4cc(C(=O)O)ccc4F)c3c2)n1 | 7.64
* COc1ccc(-c2c[nH]c3ccc(-c4cncc(NCCN(C)C)n4)cc23)cc1 | 8.05
* CN(C)CCNc1cncc(-c2ccc3[nH]cc(-c4ccnc(N)n4)c3c2)n1 | 8.52
* O=C1NCCN1c1cncc(-c2ccc3[nH]cc(-c4ccccc4F)c3c2)n1 | 6.59
* CN(C)CCN(C)c1cncc(-c2ccc3[nH]cc(-c4ccc(C(F)(F)F)cc4)c3c2)n1 | 6.50
* CN(C)CCNc1cncc(-c2ccc3[nH]cc(-c4ccc(N)c(C#N)c4)c3c2)n1 | 8.30
* CN(C)CCNc1cncc(-c2ccc3[nH]cc(-c4ccc(-c5ccccc5)cc4)c3c2)n1 | 6.80
